- measurementTarget: OsSMF1 (Oryza sativa, UniProt Q6ZLB0 1-436)
- Sequence: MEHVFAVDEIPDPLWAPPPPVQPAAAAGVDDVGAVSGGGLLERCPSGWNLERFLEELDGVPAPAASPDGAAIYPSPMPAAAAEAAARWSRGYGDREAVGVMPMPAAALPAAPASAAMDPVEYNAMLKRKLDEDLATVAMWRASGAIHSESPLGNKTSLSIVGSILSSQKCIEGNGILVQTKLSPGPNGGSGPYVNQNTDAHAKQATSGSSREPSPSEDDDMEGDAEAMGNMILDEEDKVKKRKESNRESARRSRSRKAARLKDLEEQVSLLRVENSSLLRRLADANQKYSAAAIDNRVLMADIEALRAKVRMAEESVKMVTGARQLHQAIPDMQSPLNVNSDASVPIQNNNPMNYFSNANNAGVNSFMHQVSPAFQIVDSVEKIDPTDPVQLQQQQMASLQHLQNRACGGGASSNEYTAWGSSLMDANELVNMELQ
- testSummary: protein-binding microarray (RPBM); PBS, 2% BSA, 51.3 ng/ul salmon testes DNA, 50 uM zinc acetate, 200 nM TF, 25 C, 1 h; high values mean tight binding
- conditionNotes: protein: recombinant; tags: N-terminal polyhistidine and DsRed monomer fusion (pET32a); chain copies: 2; label: CyDye5-dUTP incorporated in the synthesized complementary strand; 3' TTTTT single-stranded linker to array surface; dsDNA, one strand shown
The full ranking holds about 39,000 sequences; the median of “fluorescence intensity (a.u.)” is about 4,300, and the highest 2% start at about 39,000. This excerpt belongs to a sample that is enriched for the highest values.
experimentalReadout: binding signal

Recorded binding signal, per entry:
| primarySequence | binding signal |
| --- | --- |
| AAATAGCCAAGCCATATCATCTCATCCATATCATAATCGGCGGAGTCACCTAGTGCAG | 3200 fluorescence intensity (a.u.) |
| CGGGCGACGCCGGTGCTGGCGCCAGCGTGGGGCCGCGACGCGGAGTCACCTAGTGCAG | 4780 fluorescence intensity (a.u.) |
| GGCGGAGAGGGTATGGACAACAGCGCCGAGGTGGCGTGGCCGGAGTCACCTAGTGCAG | 5480 fluorescence intensity (a.u.) |
| TCACTGCGTGCATGTATGTACGTGGATTGTCCAATTACAACGGAGTCACCTAGTGCAG | 3300 fluorescence intensity (a.u.) |

Attention now shifts to the item below.
State, in one line, measured binding signal of GCGTGGGGCGCCGGTGGCGGAGGGTGGGGACGACAACCAGCGGAGTCACCTAGTGCAG
65500 fluorescence intensity (a.u.)
